- TARGET DESC: T1, Rb^P S474I (human, UniProt P06400 380-788, S474I)
- T1 construct: also called variant 11
- T1 sequence (looked up): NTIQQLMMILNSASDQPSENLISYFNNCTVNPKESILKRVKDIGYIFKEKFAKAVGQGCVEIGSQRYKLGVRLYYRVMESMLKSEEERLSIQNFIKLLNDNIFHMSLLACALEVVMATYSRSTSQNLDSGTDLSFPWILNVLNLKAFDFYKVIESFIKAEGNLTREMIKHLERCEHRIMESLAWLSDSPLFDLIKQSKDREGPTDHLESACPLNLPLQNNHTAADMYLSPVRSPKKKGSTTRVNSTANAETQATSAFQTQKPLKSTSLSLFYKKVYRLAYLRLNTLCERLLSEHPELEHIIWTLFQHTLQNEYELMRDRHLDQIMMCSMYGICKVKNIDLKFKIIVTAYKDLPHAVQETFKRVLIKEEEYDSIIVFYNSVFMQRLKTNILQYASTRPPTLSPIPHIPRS
- ASSAY METHOD TEXT: fluorescence polarisation; 37 °C, after the 25 °C reading ramped over 7 min to 37 °C and 2 min incubation; unlabeled Rb^P against 1.5 nM TMR-E2F1^TD or 7.5 nM TMR-E7^LxCxE; 25 mM Tris pH 8.0, 200 mM NaCl, 1 mM DTT, 0.1% Tween-20; apparent Kd
- EXPERIMENTAL CONTEXT: both partners purified
No end group written: not given here. TMR = tetramethyl rhodamine dye
TEST READOUT: pKd
One number for each entry, as −log10 of the molar value.

[[record]]
binder = "DLYCYEQLN (also: TMR label, position not given here, source: synthetic peptide, bought: GenScript) [TMR-E7^LxCxE, LxCxE peptide of the E7 oncoprotein from HPV]"
numeric_readout = 7.74


Param item = {TMR}-GEGIRDLFDCDFGDLTPLD (also called E2F^TD; source: synthetic peptide, bought: GenScript) [TMR-E2F1^TD, peptide of the E2F1 transactivation domain] ; retrieve measured pKd. 6.11
